Listed here: items and their measured IC50.
Test system: T. cruzi Tulahuen C4
Experiment: Antitrypanosomal assay T. cruzi (beta-galactosidase reporter strain on rat skeletal myoblasts)
Format: cell-based, Trypanosoma cruzi
Conditions: Trypanosoma cruzi, TULAHUEN, Myoblast, 96 h; intracellular amastigotes; 4 days on rat skeletal myoblasts

| COMPOUND | TEST_TARGET | SCALE_UNIT | IC50 |
| --- | --- | --- | --- |
| O=C(Cn1ccnc1[N+](=O)[O-])NCc1ccccc1 [Benznidazole, reference compound] | T. cruzi Tulahuen C4 | nM | 2500 |
| CC(C)=CCC/C(C)=C/CC/C(C)=C/Cc1c(C)[nH]c2ccccc2c1=O | T. cruzi Tulahuen C4 | nM | 1300 |
| CC(C)=CCC/C(C)=C/CC/C(C)=C/Cc1c(C)[nH]c2cc(C)ccc2c1=O | T. cruzi Tulahuen C4 | nM | 45700 |
